tgt: UniProtKB Q8ILY1
Sequence (Q8ILY1 entry or part of it): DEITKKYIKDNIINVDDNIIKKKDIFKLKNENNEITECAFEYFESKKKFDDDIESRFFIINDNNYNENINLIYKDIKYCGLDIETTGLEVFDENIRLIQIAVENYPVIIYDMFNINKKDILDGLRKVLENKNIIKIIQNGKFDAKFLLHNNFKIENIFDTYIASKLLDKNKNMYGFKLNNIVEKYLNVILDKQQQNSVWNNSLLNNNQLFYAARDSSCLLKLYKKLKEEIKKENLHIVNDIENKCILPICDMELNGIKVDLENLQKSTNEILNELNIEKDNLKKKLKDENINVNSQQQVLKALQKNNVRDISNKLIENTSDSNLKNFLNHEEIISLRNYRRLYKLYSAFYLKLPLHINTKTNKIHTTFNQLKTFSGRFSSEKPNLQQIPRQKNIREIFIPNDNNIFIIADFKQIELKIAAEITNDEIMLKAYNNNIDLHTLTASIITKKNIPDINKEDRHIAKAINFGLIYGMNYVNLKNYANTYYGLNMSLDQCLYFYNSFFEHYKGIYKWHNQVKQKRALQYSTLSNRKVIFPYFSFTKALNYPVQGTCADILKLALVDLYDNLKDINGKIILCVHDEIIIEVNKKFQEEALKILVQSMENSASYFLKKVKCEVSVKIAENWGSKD
method.description: Fluorescence-based high-throughput DNA polymerase assay (molecular beacon), primary screen and dose-response
Format: biochemical
run.parameters: DRC-1; 90'; conc 20
metric.name: % inhibition Apol 90'
# output: numeric value plus its unit

What % inhibition Apol 90' appears in the records for this compound with UniProtKB Q8ILY1? Cc1cc(C)c2c(c1)C1C=CCC1C(c1ccc(C(=O)O)cc1)N2 (stereo not drawn) 62.2374%

What % inhibition Apol 90' appears in the records for this compound with UniProtKB Q8ILY1? Cc1cccc(NC(=O)Cn2ccc3c(=O)[nH]ccc32)c1C [Molecule 11, O=C(Cn1ccc2c1cc[nH]c2=O)Nc1cccc(c1C)C] 80.5216%

What % inhibition Apol 90' appears in the records for this compound with UniProtKB Q8ILY1? O=C1NN(c2ccc(Cl)c(Cl)c2)C(=O)/C1=C/c1ccc(-c2ccc3c(c2)C(=O)OC3)o1 92.6423%
